# ASSAY_EXPLANATION: IV pharmacokinetics
# Type: in vivo, mice
# PROTOCOL_CONDITIONS: mouse, plasma, dose 1 mg/kg, read-out: Vdss

{"columns": ["MOL", "Vd / L/kg"],
 "data": [
  ["C[C@@H](CN1CCC(n2c(=O)[nH]c3cc(Br)ccc32)CC1)NC(=O)[C@@H]1C[C@@H]1c1ccccc1", 8.1],
  ["O=C(NCCN1CCC2(CC1)C(=O)NCN2c1cccc(F)c1)c1ccc2ccccc2c1", 4.7]
]}

###

# ASSAY_EXPLANATION: PO plasma and brain levels
# Assay type: in vivo, mice
# PROTOCOL_CONDITIONS: mouse, brain/plasma, dose 10 mg/kg

{"columns": ["COMPOUND", "Kp"],
 "data": [
  ["C[C@@H](CN1CCC(n2c(=O)[nH]c3cc(Br)ccc32)CC1)NC(=O)[C@@H]1C[C@@H]1c1ccccc1 [No. 2]", 0.73]
]}

###

# ASSAY_EXPLANATION: IV pharmacokinetics
# Format: in vivo, mice
# PROTOCOL_CONDITIONS: mouse, plasma, dose 1 mg/kg
Collected half-life values appear next to each entry.

{"columns": ["MOL", "half-life"],
 "data": [
  ["C[C@@H](CN1CCC(n2c(=O)[nH]c3cc(Br)ccc32)CC1)NC(=O)[C@@H]1C[C@@H]1c1ccccc1", "1.52 h"],
  ["O=C(NCCN1CCC2(CC1)C(=O)NCN2c1cccc(F)c1)c1ccc2ccccc2c1", "0.78 h"]
]}

Just for reference, patent US20160296506A1 is where these values come from.
